Quick reference: Kd of the listed items.
systemUnderTest: von Willebrand factor (VWF) (Homo sapiens, UniProt P04275 P04275:764-2813)
test: filter; Bmax 73%; 2 mM CaCl2, 37 C
details: tags: factor VIII free human purified VWF, Haematologic Technologies Inc; label: 5'-32P

[
  {
    "binder": "ACGAACUGCCCUCGAUCGACGCACAGACGUAAAAA (ssRNA, 2'-F C2,U7,C9,C10,C11,U12,C20,C22,C28,U30; ribo A1,G3,G8,A19,G21,A23,G29; rest 2'-OMe; 3' idT) [T83 vrt1]",
    "Kd [nM]": 2.1
  },
  {
    "binder": "ACGAACUGCCCUCGUAUUAUUUCGACGCACAGACGU (ssRNA, 2'-F C9,C10,C11,C26,G27,C28,U36; rest 2'-OMe; 3' idT) [T89 vrt6]",
    "Kd [nM]": 34.5
  }
]
